Assay comment: Bronchodilator activity in guinea pig trachea assessed as relaxation of tracheal smooth muscle at 0.05 to 0.5 ug/ml after 15 mins relative to aminophylline
Format: functional, Cavia porcellus
Parameter measured: fold change (FC)

Structure notation	Reported
CC(C)Oc1ccc2c(c1)C(=O)c1cc(C(=O)[O-])ccc1CC2.[Na+]	0.5
CC(=O)c1ccc2c(c1)C(=O)c1cc(C(=O)[O-])ccc1CC2.[Na+]	<1
N#Cc1ccc2c(c1)C(=O)c1cc(C(=O)[O-])ccc1CC2.[Na+]	5
O=C([O-])c1ccc2c(c1)C(=O)c1ccccc1CC2.[Na+]	7

* * *

Tested on: Cavia porcellus
Assay comment: Bronchodilator activity in guinea pig assessed as protection against histamine aerosol-induced bronchoconstriction at 100 mg/kg, ip treated for 15 mins prior to histamine aerosol-challenge measured after 5 mins relative to control
Assay type: functional
Settings: route intraperitoneal
Where Activity equals or exceeds 10%, the correct label is YES; where it does not, the label is NO.

Structure notation	Cat
O=C(O)c1ccc2c(c1)CCc1c(Cl)cccc1C2=O	YES
COc1ccc2c(c1)C(=O)c1ccc(C(=O)O)cc1CC2	YES
O=C(O)c1ccc2ccc3ccc(Br)cc3c(=O)c2c1	YES
O=C(O)c1cc2ccccc2c(=O)c2ccccc12	NO
O=C(O)c1ccc2c(c1)CCc1ccccc1C2=O	YES
N#Cc1ccc2c(c1)CCc1ccc(C(=O)O)cc1C2=O	YES

Recorded values, source ChEMBL document CHEMBL3272266.
